system: KRAS G12C (Homo sapiens, UniProt P01116, C118S/C51S/C80L/G12C)
Sequence (P01116 with tags, fused parts or gaps isoform P01116-2 G12C/C51S/C80L/C118S): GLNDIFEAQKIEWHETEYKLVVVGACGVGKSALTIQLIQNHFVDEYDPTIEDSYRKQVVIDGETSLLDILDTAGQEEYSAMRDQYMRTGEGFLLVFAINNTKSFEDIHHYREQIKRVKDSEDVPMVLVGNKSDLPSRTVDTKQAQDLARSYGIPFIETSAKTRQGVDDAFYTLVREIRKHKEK
protocol.summary: SOS-catalyzed nucleotide exchange assay, KRAS G12C (Procedure A)
cond: GNE
Reported IC50 values for the following molecules.
Field format: number, assumed nM, no unit text.

molecule: Cc1cc2[nH]ncc2c(-c2nccc3c4c(N5C[C@H]6CC[C@@H](C5)N6)nc(OC[C@@]56CCCN5C[C@H](F)C6)nc4n(C)c23)c1C(F)(F)F (single isomer, unassigned)
IC50 (nM): 652
//
molecule: FC(F)c1c(Cl)cc2[nH]ncc2c1-c1nccc2c1sc1nc(OC[C@@]34CCCN3C[C@H](F)C4)nc(N3C[C@H]4CC[C@@H](C3)N4)c12
IC50 (nM): 665
//
molecule: Cc1cc2[nH]ncc2c(-c2nccc3c4c(N5C[C@H]6CC[C@@H](C5)N6)nc(OC[C@@]56CCCN5C[C@H](F)C6)nc4n(C)c23)c1C(F)F (single isomer, unassigned)
IC50 (nM): 919
//
molecule: Cn1c2nc(OC[C@]3(CO)CC3(F)F)nc(N3C[C@H]4CC[C@@H](C3)N4)c2c2ccnc(-c3ccc(F)c4sc(N)c(C#N)c34)c21
IC50 (nM): 8490
//
molecule: F[C@H]1CN2CCC[C@@]2(COc2nc(N3C[C@H]4CC[C@@H](C3)N4)c3c(n2)sc2c(-c4c(C5CC5)c(Cl)cc5[nH]ncc45)nccc23)C1
IC50 (nM): 412
//
molecule: Cc1cc2[nH]ncc2c(-c2nccc3c2sc2nc(OC[C@@]45CCCN4C[C@H](F)C5)nc(N4C[C@@H]5C[C@H]4CN5)c23)c1C(F)(F)F
IC50 (nM): 1740
//
molecule: C#Cc1cccc2cc3[nH]ncc3c(-c3nccc4c3sc3nc(OC[C@@]56CCCN5C[C@H](F)C6)nc(N5C[C@H]6CC[C@@H](C5)N6)c34)c12
IC50 (nM): 73.9
//
molecule: C#Cc1csc2cc3[nH]ncc3c(-c3nccc4c3sc3nc(OC[C@@]56CCCN5C[C@H](F)C6)nc(N5C[C@H]6CC[C@@H](C5)N6)c34)c12
IC50 (nM): 22.7
//
molecule: Cc1cc2[nH]ncc2c(-c2nccc3c2sc2nc(OC[C@@]45CCCN4C[C@H](F)C5)nc(N4C[C@H]5CC[C@@](C)(C4)N5)c23)c1C(F)(F)F
IC50 (nM): 1040
//
molecule: Cc1cc2[nH]nc(C#N)c2c(-c2nccc3c2sc2nc(OC[C@@]45CCCN4C[C@H](F)C5)nc(N4C[C@H]5CC[C@@H](C4)N5)c23)c1C(F)(F)F
IC50 (nM): 755

What does the data say about its IC50? Entry: Cc1cc2[nH]ncc2c(-c2nccc3c4c(N5CC[C@H]6NCC[C@H]65)nc(OC[C@@]56CCCN5C[C@H](F)C6)nc4n(C)c23)c1C(F)(F)F
1690

* * *

system: KRAS G13D (Homo sapiens, UniProt P01116, G13D)
Sequence (P01116 with tags, fused parts or gaps isoform P01116-2 G13D): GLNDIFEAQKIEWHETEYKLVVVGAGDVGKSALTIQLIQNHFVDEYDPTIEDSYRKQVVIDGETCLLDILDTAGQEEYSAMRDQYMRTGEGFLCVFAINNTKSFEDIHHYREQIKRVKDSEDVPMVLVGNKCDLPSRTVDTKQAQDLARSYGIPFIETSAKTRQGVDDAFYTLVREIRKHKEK
protocol.summary: SOS-catalyzed nucleotide exchange assay, KRAS G13D (Procedure A)
cond: GNE
pIC50: −log10 of the molar value.
Reported pIC50 values for the following molecules.

Please review the following examples before continuing.
sample.smiles: Cc1cc(N)nc(-c2nccc3c4c(N5C[C@H]6CC[C@@H](C5)N6)nc(OC[C@@]56CCCN5C[C@H](F)C6)nc4n(C)c23)c1C(F)(F)F
pIC50: < 4.96
--
sample.smiles: Cc1cc2[nH]ncc2c(-c2nccc3c2sc2nc(OC[C@]4(C#N)C[C@H]4S(C)(=O)=O)nc(N4C[C@H]5CC[C@@H](C4)N5)c23)c1C(F)(F)F
pIC50: < 4.96
--
sample.smiles: Cn1c2nc(OC[C@]3(CO)CC3(F)F)nc(N3C[C@H]4CC[C@@H](C3)N4)c2c2ccnc(-c3c(F)cc(F)c4sc(N)c(C#N)c34)c21
pIC50: < 4.96
--
sample.smiles: N#Cc1c(N)sc2c(F)ccc(-c3nccc4c3sc3nc(OC[C@@]56CCCN5C[C@H](F)C6)nc(N5C[C@H]6CC[C@@H](C5)N6)c34)c12
pIC50: < 4.96
--
sample.smiles: Cc1cc2[nH]ncc2c(-c2nccc3c2oc2nc(OC[C@@]45CCCN4C[C@H](F)C5)nc(N4C[C@H]5CC[C@@H](C4)N5)c23)c1C(F)(F)F
pIC50: < 4.96

Let's switch to this molecule now.
What does the data say about its pIC50? Entry: Cc1cc2[nH]ncc2c(-c2nccc3c2sc2nc(OCC4CCS(=O)(=O)CC4)nc(N4C[C@H]5CC[C@@H](C4)N5)c23)c1C(F)(F)F
< 4.96

* * *

Reported IC50 values for the following compounds.
system: KRAS WT (Homo sapiens)
Sequence (P01116 with tags, fused parts or gaps isoform P01116-2): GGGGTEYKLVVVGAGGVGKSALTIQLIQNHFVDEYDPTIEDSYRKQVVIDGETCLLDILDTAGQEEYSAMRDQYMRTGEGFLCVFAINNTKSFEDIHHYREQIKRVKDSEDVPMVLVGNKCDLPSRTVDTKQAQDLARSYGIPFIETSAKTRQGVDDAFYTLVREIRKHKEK
protocol.summary: SOS-catalyzed nucleotide exchange assay, KRAS WT (Procedure A)
Assay type: biochemical
cond: GNE
Field format: number, assumed µM, no unit text.

Please review the following examples before continuing.
compound: C#Cc1c(F)ccc2cc3[nH]ncc3c(-c3nccc4c3sc3nc(OCC5(CN6CC[C@@H](F)C6)CC5)nc(N5C[C@H]6CC[C@@H](C5)N6)c34)c12 [Ex-94]
measurement.units: µM
IC50: 0.847
//
compound: Cc1cc2[nH]ncc2c(-c2nccc3c2sc2nc(OC[C@@]45CCCN4C[C@H](F)C5)nc(N4C[C@@H]5C[C@H]4CN5)c23)c1C(F)(F)F [Ex-69]
measurement.units: µM
IC50: 4.91
//
compound: C#Cc1c(F)ccc2cc3[nH]ncc3c(-c3nccc4c3sc3nc(OC[C@]5(CN6CCC7(CCC7)CC6)CC5(F)F)nc(N5C[C@H]6CC[C@@H](C5)N6)c34)c12 [Ex-98]
measurement.units: µM
IC50: 6.36

Record lookup: for KRAS WT (Homo sapiens), what IC50 belongs to Fc1ccc2cc3[nH]ncc3c(-c3nccc4c3sc3nc(OC[C@@]56CCCN5C[C@H](F)C6)nc(N5C[C@H]6CC[C@@H](C5)N6)c34)c2c1 [Ex-57] ?
2.89

* * *

Reported IC50 values for the following molecules.
system: AsPC-1 cells (Homo sapiens, UniProt P01116, G12D)
Construct: p-ERK/total ERK AlphaSureFire read-out
Sequence (P01116 1-188 isoform P01116-2 G12D): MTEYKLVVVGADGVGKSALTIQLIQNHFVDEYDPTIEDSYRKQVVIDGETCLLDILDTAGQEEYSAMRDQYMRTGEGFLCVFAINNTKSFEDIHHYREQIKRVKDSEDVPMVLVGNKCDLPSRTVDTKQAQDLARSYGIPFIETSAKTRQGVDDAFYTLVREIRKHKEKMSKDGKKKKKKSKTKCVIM
protocol.summary: Cellular phospho-ERK assay, AsPC-1 cells (KRAS G12D)
cond: 2 hours, read-out: AsPC1 pERK IC50
Field format: number, assumed nM, no unit text.

Please review the following examples before continuing.
molecule: C#Cc1c(F)ccc2cc3[nH]ncc3c(-c3nccc4c3sc3nc(OC[C@]5(CO)CC5(F)F)nc(N5C[C@H]6CC[C@@H](C5)N6)c34)c12
measurement.units: nM
IC50: 1010

molecule: Cc1cc2[nH]ncc2c(-c2nccc3c2sc2nc(OCC4(C#N)CCOC4)nc(N4C[C@H]5CC[C@@H](C4)N5)c23)c1C(F)(F)F (stereo partly drawn)
measurement.units: nM
IC50: 5980

molecule: C#Cc1c(F)ccc2cc3[nH]ncc3c(-c3nccc4c3sc3nc(OC[C@]5(CN6CCN(CC(F)(F)F)CC6)CC5(F)F)nc(N5C[C@H]6CC[C@@H](C5)N6)c34)c12
measurement.units: nM
IC50: 1210

Let's switch to this molecule now.
What does the data say about its IC50? Entry: COC1(COc2nc(N3C[C@H]4CC[C@@H](C3)N4)c3c(n2)sc2c(-c4c(C(F)(F)F)c(C)cc5[nH]ncc45)nccc23)CCOC1 (stereo partly drawn)
4670

* * *

Reported IC50 values for the following compounds.
system: KRAS G12D (Homo sapiens, UniProt P01116, G12D)
Sequence (P01116 with tags, fused parts or gaps isoform P01116-2 G12D): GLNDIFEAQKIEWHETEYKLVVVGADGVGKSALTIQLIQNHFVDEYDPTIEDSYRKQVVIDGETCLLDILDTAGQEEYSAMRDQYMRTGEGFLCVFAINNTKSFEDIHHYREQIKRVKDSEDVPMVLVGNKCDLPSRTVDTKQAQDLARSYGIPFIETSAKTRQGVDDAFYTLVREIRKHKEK
protocol.summary: SOS-catalyzed nucleotide exchange assay, KRAS G12D (Procedure A)
Format: biochemical
cond: guanine nucleotide exchange (GNE)
Field format: number, assumed µM, no unit text.

Please review the following examples before continuing.
compound: C#Cc1c(F)ccc2cc3[nH]ncc3c(-c3nccc4c3sc3nc(OC[C@]5(CO)CC5(F)F)nc(N5C[C@H]6CC[C@@H](C5)N6)c34)c12
system: KRAS G12D (Homo sapiens, UniProt P01116, G12D)
measurement.units: µM
IC50: 0.0259
--
compound: F[C@H]1CN2CCC[C@@]2(COc2nc(N3C[C@H]4CC[C@@H](C3)N4)c3c(n2)sc2c(-c4c5cn[nH]c5cc5cccc(Cl)c45)nccc23)C1
system: KRAS G12D (Homo sapiens, UniProt P01116, G12D)
measurement.units: µM
IC50: 0.0093
--
compound: C#Cc1c(F)ccc2cc3[nH]ncc3c(-c3nccc4c3sc3nc(OC[C@]5(CN6CC[C@@H](F)C6)CC5(F)F)nc(N5C[C@H]6CC[C@@H](C5)N6)c34)c12
system: KRAS G12D (Homo sapiens, UniProt P01116, G12D)
measurement.units: µM
IC50: 0.002
--
compound: Cc1cc2[nH]ncc2c(-c2nccc3c2sc2nc(OCC4CCS4(=O)=O)nc(N4C[C@H]5CC[C@@H](C4)N5)c23)c1C(F)(F)F (stereo partly shown)
system: KRAS G12D (Homo sapiens, UniProt P01116, G12D)
measurement.units: µM
IC50: 7.79
--
compound: C#Cc1c(F)ccc2cc3[nH]ncc3c(-c3nccc4c3sc3nc(OC[C@]5(CN6CC7(CCOC7)C6)CC5(F)F)nc(N5C[C@H]6CC[C@@H](C5)N6)c34)c12
system: KRAS G12D (Homo sapiens, UniProt P01116, G12D)
measurement.units: µM
IC50: 0.00194

What does the data say about its IC50? Entry: C#Cc1c(F)ccc2cc3[nH]ncc3c(-c3nccc4c3sc3nc(OC[C@@]56CCCN5C[C@@H](F)C6)nc(N5CC6CCC(C5)N6)c34)c12
0.00162

What does the data say about its IC50? Entry: Cc1cc2[nH]ncc2c(-c2nccc3c2sc2nc(OC[C@@]45CCCN4C[C@H](F)C5)nc(N4C[C@@H]5C[C@H]4CN5)c23)c1C(F)(F)F
0.0356

What does the data say about its IC50? Entry: Cc1cc2[nH]ncc2c(-c2nccc3c2sc2nc(OC[C@H]4C[C@H](S(C)(=N)=O)C4)nc(N4C[C@H]5CC[C@@H](C4)N5)c23)c1C(F)(F)F (stereo partly shown)
1.43

What does the data say about its IC50? Entry: Cn1c2nc(OC[C@]3(CO)CC3(F)F)nc(N3C[C@H]4CC[C@@H](C3)N4)c2c2ccnc(-c3c(F)cc(F)c4sc(N)c(C#N)c34)c21
0.0737

What does the data say about its IC50? Entry: Cc1cc2[nH]ncc2c(-c2nccc3c4c(N5CC[C@H]6NCC[C@H]65)nc(OC[C@@]56CCCN5C[C@H](F)C6)nc4n(C)c23)c1C(F)(F)F
0.202

What does the data say about its IC50? Entry: C#Cc1c(F)ccc2cc3[nH]ncc3c(-c3nccc4c3sc3nc(OC[C@@]56CCCN5C/C(=C\F)C6)nc(N5C[C@H]6CC[C@@H](C5)N6)c34)c12
0.00167

What does the data say about its IC50? Entry: Cc1cc2[nH]ncc2c(-c2nccc3c2sc2nc(OC[C@@]45CCCN4C[C@H](F)C5)nc(N4[C@@H]5CC[C@H]4CN(C)C5)c23)c1C(F)(F)F
1.39

What does the data say about its IC50? Entry: C#Cc1cccc2cccc(-c3nccc4c3sc3nc(OC[C@@]56CCCN5C[C@H](F)C6)nc(N5C[C@H]6CC[C@@H](C5)N6)c34)c12
0.00711

What does the data say about its IC50? Entry: Cc1cc2[nH]ncc2c(-c2nncc3c2sc2nc(OC[C@@]45CCCN4C[C@H](F)C5)nc(N4C[C@H]5CC[C@@H](C4)N5)c23)c1C(F)(F)F
0.0171

What does the data say about its IC50? Entry: Cc1cc2[nH]ncc2c(-c2nccc3c4c(N5C[C@H]6CC[C@@H](C5)N6)nc(OC[C@]5(CO)CC5(F)F)nc4n(C)c23)c1C(F)(F)F
0.583

What does the data say about its IC50? Entry: Cc1cc2[nH]ncc2c(-c2nccc3c2sc2nc(OCC4(C)CS(=O)(=O)C4)nc(N4C[C@H]5CC[C@@H](C4)N5)c23)c1C(F)(F)F
2.42
